Experiment: Solubility of Form I in aqueous media by HPLC (Example 4)
Format: physicochemical
Conditions: aqueous medium, aqueous buffer, thermodynamic from solid; Aqueous pH 5; 18 hrs; 22° C.
Measured Attribute: solubility at 18 h (mg/mL)

Compound	Recorded Number
COc1cc2c(cc1OC)[C@H]1C[C@@H](OC(=O)[C@@H](N)C(C)C)[C@H](CC(C)C)CN1CC2.Cc1ccc(S(=O)(=O)O)cc1.Cc1ccc(S(=O)(=O)O)cc1 [Form I]	27.9

###

Experiment: Solubility of Formula I Form I in solvents, gravimetric analysis of mother liquors (Example 1)
Type: physicochemical
Settings: 70 °C, organic solvent or mixture, thermodynamic from solid; MEK (boiling point 80); 10° C. below reflux; read-out: Solubility at high temperature

Compound	solubility / µg/mL
COc1cc2c(cc1OC)[C@H]1C[C@@H](OC(=O)[C@@H](N)C(C)C)[C@H](CC(C)C)CN1CC2.Cc1ccc(S(=O)(=O)O)cc1.Cc1ccc(S(=O)(=O)O)cc1 [Form I]	4000

###

Assay: Solubility of Formula I Form I in solvents, gravimetric analysis of mother liquors (Example 1)
Type: physicochemical
Conditions: 67 °C, organic solvent or mixture, thermodynamic from solid; Ethyl Acetate (boiling point 77); 10° C. below reflux; read-out: Solubility at high temperature

Compound	Units Symbol	solubility
COc1cc2c(cc1OC)[C@H]1C[C@@H](OC(=O)[C@@H](N)C(C)C)[C@H](CC(C)C)CN1CC2.Cc1ccc(S(=O)(=O)O)cc1.Cc1ccc(S(=O)(=O)O)cc1 [Form I]	µg/mL	2000

###

Assay: Solubility of Form I in organic solvents by HPLC (Example 4)
Assay type: physicochemical
Settings: 22 °C, organic solvent or mixture, thermodynamic from solid, Isopropanol
Method: The vials were shaken. After 1 hr, a sample (˜0.5 ml) was removed via syringe, and filtered through a syringe filter (0.2 micron) into a second vial. 200 μl of each solution was then transferred into an HPLC vial and made up to 1 ml by adding 800 μl of diluent. These samples were analyzed directly by HPLC, and the response was outside the linearity range. […] The samples were re-analyzed by HPLC. […] All samples were then diluted and analyzed by HPLC, as above. […]

Compound	Units Symbol	solubility at 18 h
COc1cc2c(cc1OC)[C@H]1C[C@@H](OC(=O)[C@@H](N)C(C)C)[C@H](CC(C)C)CN1CC2.Cc1ccc(S(=O)(=O)O)cc1.Cc1ccc(S(=O)(=O)O)cc1 [Form I]	µg/mL	1150

###

Assay: Solubility of Formula I Form I in solvents, gravimetric analysis of mother liquors (Example 1)
Assay type: physicochemical
Settings: organic solvent or mixture, thermodynamic from solid; Isopropyl Acetate; 5° C.; read-out: Solubility at 5° C. temperature
Measured Attribute: solubility (µg/mL)

Compound	Measured Attribute	Units Symbol	Recorded Number
COc1cc2c(cc1OC)[C@H]1C[C@@H](OC(=O)[C@@H](N)C(C)C)[C@H](CC(C)C)CN1CC2.Cc1ccc(S(=O)(=O)O)cc1.Cc1ccc(S(=O)(=O)O)cc1 [Form I]	solubility	µg/mL	4000

###

Experiment: Solubility of Formula I Form I in solvents, gravimetric analysis of mother liquors (Example 1)
Type: physicochemical
Conditions: 68 °C, organic solvent or mixture, thermodynamic from solid; EtOH (boiling point 78); 10° C. below reflux; read-out: Solubility at high temperature

Compound	solubility, mg/mL
COc1cc2c(cc1OC)[C@H]1C[C@@H](OC(=O)[C@@H](N)C(C)C)[C@H](CC(C)C)CN1CC2.Cc1ccc(S(=O)(=O)O)cc1.Cc1ccc(S(=O)(=O)O)cc1 [Form I]	212

// provenance: patent US10844058B2
